Attribution: patent US20060194837A1

A short record of pKi observed with human H3 receptor (Homo sapiens, UniProt Q9Y5N1) follows.
Sequence (Q9Y5N1 whole entry): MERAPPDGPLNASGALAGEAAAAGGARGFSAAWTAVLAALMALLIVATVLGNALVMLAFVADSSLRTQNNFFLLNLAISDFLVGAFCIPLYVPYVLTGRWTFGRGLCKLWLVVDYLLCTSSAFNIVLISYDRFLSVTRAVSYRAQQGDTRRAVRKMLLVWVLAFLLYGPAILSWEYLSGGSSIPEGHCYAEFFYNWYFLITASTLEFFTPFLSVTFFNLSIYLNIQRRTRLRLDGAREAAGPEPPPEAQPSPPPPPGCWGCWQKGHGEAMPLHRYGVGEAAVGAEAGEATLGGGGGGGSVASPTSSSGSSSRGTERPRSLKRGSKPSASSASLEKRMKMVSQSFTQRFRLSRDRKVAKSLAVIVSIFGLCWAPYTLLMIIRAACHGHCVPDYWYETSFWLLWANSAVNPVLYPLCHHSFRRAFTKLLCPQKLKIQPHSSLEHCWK
pKi: −log10 of the molar value.
result type: pKi

COc1ccc(C2CN(C)Cc3cc(OCCCNCCCO)ccc32)cc1 (centres unmarked); 6.97
COc1ccc(C2CN(C)Cc3cc(OC4CCN(CC#N)CC4)ccc32)cc1 (centres unmarked); 6.91
COc1ccc(C2CN(C)Cc3cc(OCC4CCN(C5CCC5)CC4)ccc32)cc1 (centres unmarked); 8.30
COc1ccc(C2CN(C)Cc3cc(OCC4CCN(C5CCC5)CC4)ccc32)c(F)c1 (centres unmarked); 8.10
CCN1CCC(Oc2ccc3c(c2)CN(C)CC3c2cccc(OC)c2)CC1 (centres unmarked); 8.70
COc1cccc(C2CN(C)Cc3cc(OCCCN4CCC(F)CC4)ccc32)c1 (single isomer, unassigned) [Example 45B]; 8.52
COc1ccc(C2CN(C)Cc3cc(OC[C@@H]4CN(C(C)C)CCO4)ccc32)cc1 (mixture of isomers); 8.70
COc1ccc(C2CN(C)Cc3cc(OCC4CCN(C)CC4)ccc32)cc1 (centres unmarked); 8.52
COc1ccc(C2CN(C)Cc3cc(OCCCN4CCN(C5CC5)CC4)ccc32)cc1 (centres unmarked); 7.37
COc1ccc(C2CN(C)Cc3cc(OCCCN4CCCC(CO)C4)ccc32)cc1 (centres unmarked); 8.70
COc1ccc(C2CN(C)Cc3cc(OC[C@H]4CN(C(C)C)CCO4)ccc32)cc1 (single isomer, unassigned) [Example 256B]; 8.15
COc1ccc(C2CN(C)Cc3cc(OCCCN4CCN(C(=O)c5cccn5C)CC4)ccc32)cc1 (centres unmarked); 5.62
CSc1ccc(C2CN(C)Cc3cc(OCC4CCN(C5CCC5)CC4)ccc32)cc1 (centres unmarked); 7.96
COc1ccc(C2CN(C)Cc3cc(CCCCN4CCOCC4)ccc32)cc1 (centres unmarked); 7.64
CSc1ccc(C2CN(C)Cc3cc(OC4CCN(C(C)C)CC4)ccc32)cc1 (centres unmarked); 9.00
CSc1ccc(C2CN(C)Cc3cc(OC4CCNCC4)ccc32)cc1 (centres unmarked); 6.62
COc1ccc(C2CN(C)Cc3cc(OCCCN4CCN(c5ccccc5O)CC4)ccc32)cc1 (centres unmarked); 6.30

* * *

target: Rat SERT (Rattus norvegicus); construct: A rat brain without cerebellum (Zivic Laboratories, Inc.—Pittsburgh, Pa.) was homogenized; tissue Zivic Laboratories, Inc; host or cells: rat brain without cerebellum, membranes; assay: Rat brain SERT binding ([3H]-citalopram displacement); conditions: rat brain membranes without cerebellum, 0.6 nM [3H]-citalopram, 60 min at 25° C.; read-out: Rat SERT Ki
result type: log10 Ki (log10 of the value in nM)

CN1Cc2cc(OCCCN3CCC(F)CC3)ccc2C(c2cccc(OC(F)(F)F)c2)C1 (centres unmarked); 1.60
COc1ccc(C2CN(C)Cc3cc(OCCCN4Cc5ccccc5C4)ccc32)cc1 (centres unmarked); 0.78
COc1ccc(C2CN(C)Cc3cc(OCCCN4CCN(C(C)=O)CC4)ccc32)cc1 (centres unmarked); 1.11
CSc1ccc(C2CN(C)Cc3cc(OCC4CNCCO4)ccc32)cc1 (mixture of isomers); 0.78
COc1ccc(C2CN(C)Cc3cc(OCCCN4C=NCCC4)ccc32)cc1 (centres unmarked); 0.00
COc1ccc(C2CN(C)Cc3cc(OC[C@@H]4CNCCO4)ccc32)cc1 (some centres unmarked); 0.30
COc1ccc(C2CN(C)Cc3cc(OCCCN4CCCC(F)C4)ccc32)cc1 (centres unmarked); 0.48
COc1ccc(C2CN(C)Cc3cc(OCCCN4CCC4)ccc32)cc1 (centres unmarked); 1.04
CSc1ccc(C2CN(C)Cc3cc(OCCCN4CCOC[C@@H]4C)ccc32)cc1 (some centres unmarked); 0.00
COc1ccc(C2CN(C)Cc3cc(OCCCN4CCC(F)CC4)ccc32)cc1 (racemic) [Example 1]; 0.30
COc1ccc(C2CN(C)Cc3cc(OCCCN4CCC(C(F)(F)F)CC4)ccc32)cc1 (centres unmarked); 1.46
CSc1ccc(C2CN(C)Cc3cc(OCC4CN(CCF)C4)ccc32)cc1 (centres unmarked); 0.30
COc1ccc(C2CN(C)Cc3cc(C#CCCN4CCSCC4)ccc32)cc1 (centres unmarked); 1.57
COc1ccc(C2CN(C)Cc3cc(OC[C@H]4CN(C(C)C)CCO4)ccc32)cc1 (single isomer, unassigned) [Example 256B]; 0.90
COc1ccc(C2CN(C)Cc3cc(OCC4CCN(C(C)C)CC4)ccc32)c(F)c1 (centres unmarked); 0.95
CSc1ccc(C2CN(C)Cc3cc(OCCCN4CCCCC4)c(C)cc32)cc1 (centres unmarked); 1.26
C[C@H]1COCCN1CCCOc1ccc2c(c1)CN(C)CC2c1ccc(SC(F)(F)F)cc1 (some centres unmarked); 1.59

* * *

target: human H3 receptor (Homo sapiens)
Simple rule here: Ki less than 4 nM is YES, otherwise NO.

CN1Cc2cc(OCCCN3CCC(F)CC3)ccc2C(c2ccc(Sc3ccccc3)nc2)C1 (centres unmarked) [Example 191]; NO
COc1ccc(C2CN(Cc3ccccc3)Cc3cc(OCCCN4CCC(F)CC4)ccc32)cc1 (centres unmarked) [Example 127]; NO
C[C@H]1COCCN1CCCOc1ccc2c(c1)CN(C)CC2c1ccc(N2CCOCC2)cc1 (some centres unmarked) [Example 133]; YES
CN1Cc2cc(OCCCN3CCCCC3)ccc2C(c2ccc(OC(F)(F)F)cc2)C1 (centres unmarked) [Example 222]; NO
COc1ccc(C2CN(C)Cc3cc(OCCCN4CCCCC4CO)ccc32)cc1 (centres unmarked) [Example 24]; YES
COc1ccc(C2CN(C)Cc3cc(C#CCCN4CCCCC4)ccc32)cc1 (centres unmarked) [Example 275]; YES
CN1Cc2cc(OCCCN3CCCCC3)ccc2C(c2cccnc2)C1 (centres unmarked) [Example 59]; YES
COCCN1CCN(CCCOc2ccc3c(c2)CN(C)CC3c2ccc(OC)cc2)CC1 (centres unmarked) [Example 209]; NO
COc1ccc(C2CN(C)Cc3cc(OCCCN4CCOC[C@@H]4CO)ccc32)cc1 (mixture of isomers) [Example 183A]; NO
CN1Cc2cc(OCCCN3CCC(F)CC3)ccc2C(c2cc(Cl)ccc2Cl)C1 (centres unmarked) [Example 55]; NO
COCCNCCCOc1ccc2c(c1)CN(C)CC2c1ccc(OC)cc1 (centres unmarked) [Example 225]; NO
CN1Cc2cc(OCCCN3CCC(F)CC3)ccc2C(c2ccc(C#C[Si](C)(C)C)nc2)C1 (centres unmarked) [Example 189]; NO
CN1Cc2cc(OCCCN3CCC(F)CC3)ccc2C(c2ccccc2F)C1 (centres unmarked) [Example 125]; YES
COc1ccc(C2CN(C)Cc3cc(OCCCN4CCN(C(=O)C(C)C)CC4)ccc32)cc1 (centres unmarked) [Example 5]; NO

* * *

target: Rat SERT (Rattus norvegicus, UniProt P31652); construct: A rat brain without cerebellum (Zivic Laboratories, Inc.—Pittsburgh, Pa.) was homogenized; tissue Zivic Laboratories, Inc; host or cells: rat brain without cerebellum, membranes; assay: Rat brain SERT binding ([3H]-citalopram displacement); conditions: rat brain membranes without cerebellum, 0.6 nM [3H]-citalopram, 60 min at 25° C.; read-out: Rat SERT Ki
Sequence (P31652 whole entry): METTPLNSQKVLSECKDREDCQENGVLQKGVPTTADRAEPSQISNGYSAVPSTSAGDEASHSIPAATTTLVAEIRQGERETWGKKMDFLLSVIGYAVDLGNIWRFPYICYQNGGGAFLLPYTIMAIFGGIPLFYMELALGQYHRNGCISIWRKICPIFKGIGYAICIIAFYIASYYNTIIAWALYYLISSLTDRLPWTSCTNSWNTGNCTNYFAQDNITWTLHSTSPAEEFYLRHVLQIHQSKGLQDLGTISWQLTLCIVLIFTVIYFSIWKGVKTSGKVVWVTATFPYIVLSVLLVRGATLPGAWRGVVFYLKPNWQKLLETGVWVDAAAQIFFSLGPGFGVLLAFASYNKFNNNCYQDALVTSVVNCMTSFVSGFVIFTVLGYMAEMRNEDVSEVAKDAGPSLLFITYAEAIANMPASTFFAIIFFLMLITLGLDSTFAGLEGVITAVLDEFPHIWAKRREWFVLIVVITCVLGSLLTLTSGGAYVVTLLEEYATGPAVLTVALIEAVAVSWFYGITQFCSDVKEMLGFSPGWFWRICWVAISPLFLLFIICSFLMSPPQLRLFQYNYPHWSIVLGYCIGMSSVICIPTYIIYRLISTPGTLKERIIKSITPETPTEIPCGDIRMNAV
Simple rule here: Ki less than 5 nM is y, otherwise n.

COc1ccc(C2CN(C)Cc3cc(OCCCN4CCC(F)CC4)ccc32)cc1 (single isomer, unassigned) [Example 1B]; y
CN1Cc2cc(OCCCN3CCC(F)CC3)ccc2C(c2ccc(C#N)cc2)C1 (centres unmarked); n
CCN1CCC(COc2ccc3c(c2)CN(C)CC3c2ccc(OC)c(Cl)c2)CC1 (centres unmarked); n
CSc1ccc(C2CN(C)Cc3cc(OCC4CN(C5CCC5)C4)ccc32)cc1 (centres unmarked); y
COc1ccc(C2CN(C)Cc3cc(OCCCN=C4N(C)CCCN4C)ccc32)cc1 (centres unmarked); n
CN1Cc2cc(OCCCN3CCC(F)CC3)ccc2C(c2ccccc2F)C1 (centres unmarked); n
COc1ccc(C2CN(C)Cc3cc(OCC4CCN(CC(C)C)CC4)ccc32)cc1 (centres unmarked); y
COc1ccc(C2CN(C)Cc3cc(OCCCN4CCN(c5ccc(C(F)(F)F)cc5)CC4)ccc32)cc1 (centres unmarked); n
CN1Cc2cc(OCCCN3CCC(F)CC3)ccc2C(c2ccc(SC(F)(F)F)cc2)C1 (centres unmarked); n
COc1ccc(C2CN(C)Cc3cc(OCC4CCN(C5CCC5)CC4)ccc32)c(F)c1 (centres unmarked); n
CCOc1ccc(C2CN(C)Cc3cc(OCCCN4CCC(F)CC4)ccc32)cc1 (centres unmarked); y
CCN1CCC(Oc2ccc3c(c2)CN(C)CC3c2cccc(OC)c2)CC1 (centres unmarked); n
COc1ccc(C2CN(C)Cc3cc(OCCCN4CCN(C(=O)OC(C)(C)C)CC4)ccc32)cc1 (centres unmarked); n
CN1Cc2cc(OCCCN3CCC(F)CC3)ccc2C(c2ccc(C#C[Si](C)(C)C)nc2)C1 (centres unmarked); n
COc1ccc(C2CN(C)Cc3cc(OCCCN4CCC(CCO)CC4)ccc32)cc1 (centres unmarked); y
